The origin of these recorded values is ChEMBL document CHEMBL4837261.

# TEST TARGET: Cytochrome P450 2C8 (Homo sapiens)
# Sequence (P10632 whole entry): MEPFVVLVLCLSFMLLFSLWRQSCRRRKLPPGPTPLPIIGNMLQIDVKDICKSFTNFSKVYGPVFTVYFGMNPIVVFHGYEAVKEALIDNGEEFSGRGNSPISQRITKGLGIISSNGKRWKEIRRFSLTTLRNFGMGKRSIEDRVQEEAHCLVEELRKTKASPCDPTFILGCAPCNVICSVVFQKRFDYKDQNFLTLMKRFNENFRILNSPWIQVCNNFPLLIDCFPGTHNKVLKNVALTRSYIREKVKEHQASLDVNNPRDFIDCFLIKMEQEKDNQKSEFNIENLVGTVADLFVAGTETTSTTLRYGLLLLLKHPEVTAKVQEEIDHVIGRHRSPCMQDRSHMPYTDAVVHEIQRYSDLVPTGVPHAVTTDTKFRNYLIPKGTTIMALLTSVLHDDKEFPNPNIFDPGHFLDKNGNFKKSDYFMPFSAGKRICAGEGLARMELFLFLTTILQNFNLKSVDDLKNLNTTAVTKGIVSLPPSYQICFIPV
QUANTITY KIND: IC50

Value wanted: IC50 (Cytochrome P450 2C8 (Homo sapiens)) of entry COc1ccc2ncc(F)c(C[C@H](O)[C@H]3OC[C@H](NCc4cc5c(nn4)OCCS5)CO3)c2n1
> 10 µM

---

# TEST TARGET: CYP2C9 (Homo sapiens)
# Sequence (P11712 whole entry): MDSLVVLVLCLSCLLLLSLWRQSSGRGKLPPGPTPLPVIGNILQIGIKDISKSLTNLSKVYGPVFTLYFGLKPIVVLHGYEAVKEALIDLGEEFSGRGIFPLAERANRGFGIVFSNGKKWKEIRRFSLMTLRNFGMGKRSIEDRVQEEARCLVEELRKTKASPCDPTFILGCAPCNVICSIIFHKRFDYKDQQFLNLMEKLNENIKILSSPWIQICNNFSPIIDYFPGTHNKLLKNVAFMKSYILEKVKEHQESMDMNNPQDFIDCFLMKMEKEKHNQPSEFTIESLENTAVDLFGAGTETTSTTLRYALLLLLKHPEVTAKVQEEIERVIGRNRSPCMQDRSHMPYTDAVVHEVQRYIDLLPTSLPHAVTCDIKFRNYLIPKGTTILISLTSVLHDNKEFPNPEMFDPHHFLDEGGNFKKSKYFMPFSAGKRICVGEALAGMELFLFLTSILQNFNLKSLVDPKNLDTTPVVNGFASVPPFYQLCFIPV
# ASSAY: Inhibition of CYP2C9 (unknown origin) at 10 uM relative to control
# Format: ADME
QUANTITY KIND: inhibition at 10 µM

INSERT INTO results (molecule, quantity_kind, result) VALUES
  ('COc1ccc2ncc(F)c(C[C@H](O)[C@H]3OC[C@H](NCc4cc5c(nn4)OCCS5)CO3)c2n1', 'inhibition at 10 µM', '> 50%');

Look at this molecule and give its reported inhibition at 10 µM. COc1ccc2ncc(F)c(C(O)C[C@H]3OC[C@H](NCc4cc5c(nn4)OCCS5)CO3)c2n1 (mixture of isomers)
> 50%

---

# TEST TARGET: Kv4.3 (KCND3) (Homo sapiens, UniProt Q9UK17)
# Sequence (Q9UK17 whole entry): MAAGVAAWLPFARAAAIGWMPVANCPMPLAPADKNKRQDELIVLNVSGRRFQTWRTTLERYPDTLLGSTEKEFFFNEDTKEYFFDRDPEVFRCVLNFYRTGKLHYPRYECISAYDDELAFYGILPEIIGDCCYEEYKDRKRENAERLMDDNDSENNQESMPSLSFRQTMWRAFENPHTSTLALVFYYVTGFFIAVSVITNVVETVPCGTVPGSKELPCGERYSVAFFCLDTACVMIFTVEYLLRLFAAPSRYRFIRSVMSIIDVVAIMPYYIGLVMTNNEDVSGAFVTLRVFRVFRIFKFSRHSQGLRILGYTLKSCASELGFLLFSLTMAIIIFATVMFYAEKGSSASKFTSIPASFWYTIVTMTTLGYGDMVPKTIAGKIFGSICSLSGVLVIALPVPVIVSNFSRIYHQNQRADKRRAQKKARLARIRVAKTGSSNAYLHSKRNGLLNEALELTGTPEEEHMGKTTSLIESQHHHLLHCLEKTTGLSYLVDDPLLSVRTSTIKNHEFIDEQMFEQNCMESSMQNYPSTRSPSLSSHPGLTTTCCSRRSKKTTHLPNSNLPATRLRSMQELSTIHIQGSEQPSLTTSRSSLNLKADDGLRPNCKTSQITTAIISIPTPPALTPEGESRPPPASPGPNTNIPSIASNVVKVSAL
# ASSAY: Inhibition of recombinant human Kv4.3 expressed in human HEK293 cells at 100 uM measured at peak current by automated Qpatch clamp assay relative to control
# Type: ADME, cell-based
# EXPERIMENTAL SETUP: HEK293 cells expressing recombinant human Kv4.3
QUANTITY KIND: inhibition at 100 µM

Look at this molecule and give its reported inhibition at 100 µM. COc1ccc2ncc(F)c(C[C@H](O)[C@H]3OC[C@H](NCc4cc5c(nn4)OCCS5)CO3)c2n1
< 25%

---

# TEST TARGET: UniProt P05177
# Sequence (P05177 whole entry): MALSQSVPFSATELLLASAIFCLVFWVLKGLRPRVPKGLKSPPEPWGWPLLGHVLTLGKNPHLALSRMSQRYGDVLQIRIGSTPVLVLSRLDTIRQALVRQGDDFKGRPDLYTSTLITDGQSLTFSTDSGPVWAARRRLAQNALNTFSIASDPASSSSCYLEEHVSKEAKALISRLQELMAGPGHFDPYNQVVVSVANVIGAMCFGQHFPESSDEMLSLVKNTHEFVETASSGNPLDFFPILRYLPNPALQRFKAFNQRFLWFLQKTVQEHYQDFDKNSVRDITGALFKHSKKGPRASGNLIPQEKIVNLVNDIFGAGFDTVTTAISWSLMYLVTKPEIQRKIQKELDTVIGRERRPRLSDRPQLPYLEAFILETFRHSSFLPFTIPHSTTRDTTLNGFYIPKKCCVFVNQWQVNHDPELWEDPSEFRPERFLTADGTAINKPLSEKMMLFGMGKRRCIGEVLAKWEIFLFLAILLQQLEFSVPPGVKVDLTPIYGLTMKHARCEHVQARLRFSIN
# ASSAY: Inhibition of CYP1A2 (unknown origin) at 10 uM relative to control
# Type: ADME
Overview of recorded inhibition at 10 µM for various molecules

INSERT INTO results (molecule, quantity_kind, result) VALUES
  ('COc1ccc2ncc(F)c(C(O)C[C@H]3OC[C@H](NCc4cc5c(nn4)OCCS5)CO3)c2n1 (mixture of isomers)', 'inhibition at 10 µM', '> 50%');

Consider the record given below.
Look at this molecule and give its reported inhibition at 10 µM. COc1ccc2ncc(F)c(C[C@H](O)[C@H]3OC[C@H](NCc4cc5c(nn4)OCCS5)CO3)c2n1
> 50%

---

# TEST TARGET: Topoisomerase IV (Staphylococcus aureus, UniProt P0C1S7+P0C1U9)
# ASSAY: Inhibition of Staphylococcus aureus topoisomerase IV decatenation activity using kDNA as substrate by ethidium bromide/bromophenol blue staining based agarose gel electrophoresis analysis
Label 1 (yes) when IC50 is strictly below 4 µM; at or above that, label 0 (no).

Please review the following examples before continuing.
INSERT INTO measurements (molecule, category) VALUES
  ('COc1ccc2ncc(F)c(C[C@H](O)[C@H]3OC[C@H](NCc4ccc5c(n4)NC(=O)CO5)CO3)c2c1', '1 (yes)'),
  ('COc1ccc2ccc(F)c(C[C@H](O)[C@H]3OC[C@H](NCc4cc5c(cn4)OCCO5)CO3)c2n1', '1 (yes)'),
  ('COc1ccc2ncc(F)c(C[C@H](O)[C@H]3OC[C@H](NCc4cc5c(cn4)OCCO5)CO3)c2c1', '0 (no)');

Item COc1ccc2ccc(F)c(C[C@H](O)[C@H]3OC[C@H](NCc4ccc(Cl)c(Cl)c4)CO3)c2n1 : IC50 beneath 4 µM, strictly?
1 (yes)

Item COc1ccc2ncc(F)c(C[C@H](O)[C@H]3OC[C@H](NCc4cc5c(nn4)OCCO5)CO3)c2c1 : IC50 beneath 4 µM, strictly?
0 (no)

Item COc1ccc2ncc(F)c(C(O)C[C@H]3OC[C@H](NCc4cc5c(cn4)OCCO5)CO3)c2n1 (mixture of isomers) : IC50 beneath 4 µM, strictly?
0 (no)

Item COc1ccc2ncc(F)c(C[C@H](O)[C@H]3OC[C@H](NCc4cc5c(nn4)OCCS5)CO3)c2n1 : IC50 beneath 4 µM, strictly?
1 (yes)

Item COc1ccc2ncc(F)c(C[C@H](O)[C@H]3OC[C@H](NCc4cc5c(cn4)OCCO5)CO3)c2n1 : IC50 beneath 4 µM, strictly?
1 (yes)

Item COc1ccc2ncc(F)c(C(O)C[C@H]3OC[C@H](NCc4cc5c(cn4)OCCO5)CO3)c2c1 (mixture of isomers) : IC50 beneath 4 µM, strictly?
0 (no)

Item COc1ccc2ncc(F)c(C[C@H](O)[C@H]3OC[C@H](NCc4ccc(Cl)c(Cl)c4)CO3)c2c1 : IC50 beneath 4 µM, strictly?
1 (yes)

Item COc1ccc2ncc(F)c(C(O)C[C@H]3OC[C@H](NCc4ccc(Cl)c(Cl)c4)CO3)c2c1 (mixture of isomers) : IC50 beneath 4 µM, strictly?
0 (no)

Item COc1ccc2ncc(F)c(C(O)C[C@H]3OC[C@H](NCc4ccc5c(c4)OCCO5)CO3)c2c1 (mixture of isomers) : IC50 beneath 4 µM, strictly?
0 (no)

Item COc1ccc2ncc(F)c(C(O)C[C@H]3OC[C@H](NCc4cc5c(nn4)OCCS5)CO3)c2n1 (mixture of isomers) : IC50 beneath 4 µM, strictly?
0 (no)

Item COc1ccc2ncc(F)c(C(O)C[C@H]3OC[C@H](NCc4ccc5c(n4)NC(=O)CS5)CO3)c2c1 (mixture of isomers) : IC50 beneath 4 µM, strictly?
1 (yes)

Item COc1ccc2ccc(F)c(C[C@H](O)[C@H]3OC[C@H](NCc4cc5c(nn4)OCCS5)CO3)c2n1 : IC50 beneath 4 µM, strictly?
0 (no)

Item COc1ccc2ncc(F)c(C[C@H](O)[C@H]3OC[C@H](NCc4ccc5c(c4)OCCO5)CO3)c2c1 : IC50 beneath 4 µM, strictly?
1 (yes)

Item COc1ccc2ncc(F)c(C[C@H](O)[C@H]3OC[C@H](NCc4ccc5c(c4)OCCO5)CO3)c2n1 : IC50 beneath 4 µM, strictly?
1 (yes)

---

# ASSAY: Kinetic solubility of the compound at pH 7.4 buffer
# Assay type: physicochemical
# EXPERIMENTAL SETUP: read-out: Kinetic_solubility
QUANTITY KIND: solubility kinetic

Look at this compound and give its reported solubility kinetic. COc1ccc2ncc(F)c(C[C@H](O)[C@H]3OC[C@H](NCc4cc5c(nn4)OCCS5)CO3)c2n1
61.4 µM

---

# TEST TARGET: Cytochrome P450 2B6 (Homo sapiens, UniProt P20813)
# Sequence (P20813 whole entry): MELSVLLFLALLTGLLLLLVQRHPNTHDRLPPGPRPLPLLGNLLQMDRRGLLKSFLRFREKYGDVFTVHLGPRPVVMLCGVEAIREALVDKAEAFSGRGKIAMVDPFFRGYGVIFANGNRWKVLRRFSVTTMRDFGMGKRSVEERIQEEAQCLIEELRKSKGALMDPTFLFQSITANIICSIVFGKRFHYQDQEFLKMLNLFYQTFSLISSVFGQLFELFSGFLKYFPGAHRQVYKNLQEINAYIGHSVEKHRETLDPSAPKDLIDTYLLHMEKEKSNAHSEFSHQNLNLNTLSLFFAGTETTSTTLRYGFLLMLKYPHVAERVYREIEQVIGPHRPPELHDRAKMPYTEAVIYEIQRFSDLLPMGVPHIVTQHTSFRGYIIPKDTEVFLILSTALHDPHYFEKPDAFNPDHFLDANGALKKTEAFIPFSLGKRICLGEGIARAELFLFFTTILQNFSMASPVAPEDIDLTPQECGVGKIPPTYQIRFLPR
QUANTITY KIND: IC50

Look at this compound and give its reported IC50. COc1ccc2ncc(F)c(C[C@H](O)[C@H]3OC[C@H](NCc4cc5c(nn4)OCCS5)CO3)c2n1
> 10 µM

---

# ASSAY: Cmax in ICR (CD-1) mouse at 50 mg/kg, po measured up to 1440 mins by LC-MS/MS analysis
# Format: ADME, organism-based
# Parameters: route oral, dose 50 mg/kg, time <=1440
# EXPERIMENTAL SETUP: in vivo
QUANTITY KIND: Cmax (ng/mL)
Field: numeric (ng/mL). Do not append units.

Look at this compound and give its reported Cmax. COc1ccc2ncc(F)c(C[C@H](O)[C@H]3OC[C@H](NCc4cc5c(nn4)OCCS5)CO3)c2n1
7020

---

Overview of recorded MIC for various compounds
# System: Staphylococcus aureus
# ASSAY: Antibacterial activity against Staphylococcus aureus 3527 by CLSI method
# Type: functional
Field: numeric (µg/mL). Do not append units.

Reference set (5 entries):
INSERT INTO measurements (compound, quantity_kind, unit, numeric_result) VALUES
  ('O=c1ccc2ncc(=O)n3c2n1C[C@H]3CN1CCC(NCc2cc3c(cn2)OCCC3)CC1', 'MIC', 'µg/mL', 0.25),
  ('COc1ccc2ncc(F)c(C[C@H](O)[C@H]3OC[C@H](NCc4ccc(Cl)c(Cl)c4)CO3)c2c1', 'MIC', 'µg/mL', 0.25),
  ('COc1ccc2ncc(F)c(C[C@H](O)[C@H]3OC[C@H](NCc4cnc5c(n4)OCCO5)CO3)c2n1', 'MIC', 'µg/mL', 1),
  ('COc1ccc2ncc(F)c(C[C@H](O)[C@H]3OC[C@H](NCc4ccc5c(c4)OCCO5)CO3)c2c1', 'MIC', 'µg/mL', 0.125),
  ('COc1ccc2ncc(F)c(C(O)C[C@H]3OC[C@H](NCc4cc5c(nn4)OCCS5)CO3)c2n1 (mixture of isomers)', 'MIC', 'µg/mL', 0.5);

Consider the record given below.
Look at this compound and give its reported MIC. COc1ccc2ccc(F)c(C[C@H](O)[C@H]3OC[C@H](NCc4cc5c(nn4)OCCS5)CO3)c2n1
0.5

---

# Test system: Staphylococcus aureus
# ASSAY: Selectivity ratio of IC50 for inhibition of Staphylococcus aureus Gyrase D83N mutant to IC50 for inhibition of Staphylococcus aureus Gyrase
Overview of recorded Ratio IC50 for various compounds
Could you keep your reply to the number by itself?

Look at this compound and give its reported Ratio IC50. COc1ccc2ncc(F)c(C[C@H](O)[C@H]3OC[C@H](NCc4cc5c(nn4)OCCS5)CO3)c2c1
336

Look at this compound and give its reported Ratio IC50. COc1ccc2ccc(F)c(C[C@H](O)[C@H]3OC[C@H](NCc4cc5c(nn4)OCCS5)CO3)c2n1
99

Look at this compound and give its reported Ratio IC50. COc1ccc2ncc(F)c(C[C@H](O)[C@H]3OC[C@H](NCc4cc5c(nn4)OCCO5)CO3)c2c1
60

Look at this compound and give its reported Ratio IC50. COc1ccc2ncc(F)c(C[C@H](O)[C@H]3OC[C@H](NCc4ccc5c(c4)OCCO5)CO3)c2c1
72

Look at this compound and give its reported Ratio IC50. COc1ccc2ncc(F)c(C[C@H](O)[C@H]3OC[C@H](NCc4cnc5c(n4)OCCO5)CO3)c2n1
80

Look at this compound and give its reported Ratio IC50. COc1ccc2ncc(F)c(C[C@H](O)[C@H]3OC[C@H](NCc4cc5c(cn4)OCO5)CO3)c2n1
86
